Where a SMILES comes first, the peptide text is derived from it. [ ]: non-standard residue; d: D form. Phe(3-CONH2) = NC(=O)c1cccc(C[C@H](N)C(=O)O)c1; Phe(4-CONH2) = NC(=O)c1ccc(C[C@H](N)C(=O)O)cc1
Reported Ki for target or system Delta-type opioid receptor (Homo sapiens), by entry.
Reply with just the number (in nM).

CC(C)C[C@H](NC(=O)[C@H](Cc1ccccc1)NC(=O)CNC(=O)[C@@H](CO)NC(=O)[C@@H](N)Cc1cc[n+]([O-])cc1)C(=O)N[C@H](C(=O)O)[C@@H](C)O | 360
CC(C)C[C@H](NC(=O)[C@H](Cc1ccccc1)NC(=O)CNC(=O)[C@@H](CO)NC(=O)[C@@H](N)Cc1ccc2nc(N)sc2c1)C(=O)N[C@H](C(=O)O)[C@@H](C)O | 3.8
CC(C)C[C@H](NC(=O)[C@H](Cc1ccccc1)NC(=O)CNC(=O)CNC(=O)[C@@H](N)Cc1cccc(C(N)=O)c1)C(=O)O (H-[Phe(3-CONH2)]GGFL-OH) | 475
CSCC[C@H](NC(=O)[C@H](Cc1ccccc1)NC(=O)CNC(=O)[C@@H](C)NC(=O)[C@@H](N)Cc1ccc2nc(N)sc2c1)C(=O)O | 1

Consider now this further compound.
Request: Enter Ki (test system Delta-type opioid receptor (Homo sapiens)) for CSCC[C@H](NC(=O)[C@H](Cc1ccccc1)NC(=O)CNC(=O)CNC(=O)[C@@H](N)Cc1ccc(C(N)=O)cc1)C(=O)O (H-[Phe(4-CONH2)]GGFM-OH)
Response: 1.8
